B1: Membrane-associated guanylate kinase, WW and PDZ domain-containing protein 2, residues 296 to 340; numbered along this chain, Q86UL8 (parent)
chain: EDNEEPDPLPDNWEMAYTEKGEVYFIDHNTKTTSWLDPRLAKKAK

variants of: B1; assay: abundance fitness (aPCA) (normalised: wild type 0, dead -1); higher = more abundant; growth selection in yeast, the domain comes from the species named; conditions: Homo sapiens
abundance fitness vs -0.3: at or above is Condition met, below is Condition not met.

mut | categoryLabel
L40R | Condition met
S34L | Condition not met
D27M | Condition not met
E14N | Condition met
H28K | Condition met
T18K | Condition not met
P10C | Condition not met
T32S | Condition met
I26S | Condition not met
K31E | Condition met
P6H | Condition met
K31W | Condition met
E19W | Condition not met
E14F | Condition not met
L36K | Condition met
E1S | Condition met
T30G | Condition met
T33E | Condition not met
Y17P | Condition not met
Y17G | Condition not met
N3D | Condition met
K42R | Condition met
